Test: chemical genetic growth profiling, strain panel (AID 1159580);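 note: tested at 20 µM; growth read once vehicle control cultures reached saturation at 30 °C; lower values mean less growth of the strain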
Settings: S. cerevisiae deletion strains, growth OD, locus YNL322C, strain KRE1 (second series)
The whole screen tested about 5,500 compounds, of which about 2,000 (36%) were called active. Roughly 18% stayed inconclusive and do not appear here. Cut-off read from the data, not from the text of the source: active = normalized growth mostly below about 0.91 (no sharp cut-off); inconclusive = no clear call, values can overlap the other calls; inactive = mostly above about 0.92. The list shows a part of the results.
Write down the outcome that applies. Available outcomes: yes = active, no = inactive

Reference set (8 entries):
- CC12CCC(CC1)C(C)(C)O2: no
- Nc1nc2c(c(=O)[nH]1)N(C=O)C(CNc1ccc(C(=O)N[C@@H](CCC(=O)O)C(=O)O)cc1)CN2 (some centres not stated): no
- NCc1ccc(S(N)(=O)=O)cc1: no
- CC1(C)O[C@@H]2[C@@H](CO[C@@]3(COS(N)(=O)=O)OC(C)(C)O[C@@H]23)O1: no
- O=C(NC(=O)c1c(F)cccc1F)Nc1cc(Cl)c(OC(F)(F)C(F)C(F)(F)F)cc1Cl (configuration not stated): no
- CCN(CC)CCOC(=O)C(Cc1cccc2ccccc12)CC1CCCO1 (configuration not stated): no
- COS(C)(=O)=O: no
- O=C(O)CCC(=O)c1ccc(-c2ccccc2)cc1: no

Entry CCCNC(C)C(=O)Nc1ccccc1C (configuration not stated) : call = ?
no

Please let me know the test result on file for "NCCCCN=C(N)N" .
no

// param item: CC1(C)O[C@@H]2CC3C4CCC5=CC(=O)C=C[C@]5(C)C4[C@@H](O)C[C@]3(C)[C@]2(C(=O)CO)O1 (some centres not stated) ; yields the recorded call
no

Record request — test call for "C=CC1=C(C)/C(=C/c2[nH]c(Cc3[nH]c(/C=C4\NC(=O)C(C)=C4C=C)c(C)c3CCC(=O)O)c(CCC(=O)O)c2C)NC1=O"
no
